Data provenance is patent EP4768479A1.

# Lookup of reported inhibition at 10 µM keyed by entry
SYSTEM NAME: CYP3A4 (Homo sapiens, UniProt P08684)
Construct: Mixed human liver microsomes; from tissue; host or cells: mixed (pooled) human liver microsomes
Sequence (P08684 whole entry): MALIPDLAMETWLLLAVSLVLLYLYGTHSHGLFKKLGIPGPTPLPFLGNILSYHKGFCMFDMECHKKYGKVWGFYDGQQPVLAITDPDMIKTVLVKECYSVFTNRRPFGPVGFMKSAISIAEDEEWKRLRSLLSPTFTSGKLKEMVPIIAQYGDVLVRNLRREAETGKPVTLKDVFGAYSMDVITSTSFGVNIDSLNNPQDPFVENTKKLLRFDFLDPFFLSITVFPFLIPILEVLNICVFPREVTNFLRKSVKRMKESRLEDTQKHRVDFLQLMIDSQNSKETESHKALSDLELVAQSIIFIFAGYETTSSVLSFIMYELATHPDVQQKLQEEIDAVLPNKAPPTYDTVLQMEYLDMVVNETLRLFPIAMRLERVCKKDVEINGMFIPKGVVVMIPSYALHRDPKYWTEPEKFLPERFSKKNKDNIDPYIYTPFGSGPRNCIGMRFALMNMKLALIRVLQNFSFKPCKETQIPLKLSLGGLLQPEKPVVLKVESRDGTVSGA
PROCEDURE SUMMARY: CYP inhibition assay in mixed human liver microsomes
Format: in vitro ADME
SETTINGS: probe midazolam, read-out: Inhibition Rate % CYP3A4 (midazolam)
MEASURED PROPERTY: inhibition at 10 µM (%)

>>> value_observed("CCCCOC(=O)NS(=O)(=O)c1sc(CC(C)C)cc1-c1ccc(Cn2ccnc2)cc1 [Control Compound I, reference compound]")
92.6
>>> value_observed("COC(=O)NS(=O)(=O)c1sc(CC(C)C)c(C)c1-c1ccc(Cn2ccnc2Cl)c(F)c1")
14
>>> value_observed("Cc1c(CC(C)C)sc(S(=O)(=O)NC(=O)OCCO)c1-c1ccc(Cn2ccnc2C(F)(F)F)cc1")
9.6

====

PROCEDURE SUMMARY: Bidirectional permeability study in Caco-2 cells
Type: in vitro ADME
SETTINGS: human, pH 7.4, Caco-2, 2.00 µM, A to B
MEASURED PROPERTY: Papp A→B at 2 h, 2 µM (×10⁻⁶ cm/s)

>>> value_observed("COC(=O)NS(=O)(=O)c1sc(CC(C)C)c(C)c1-c1ccc(Cn2ccnc2Cl)c(F)c1")
3.73
>>> value_observed("COC(=O)NS(=O)(=O)c1sc(CC(C)C)c(C)c1-c1ccc(Cn2ccnc2C(F)(F)F)cc1")
2.29
>>> value_observed("Cc1c(CC(C)C)sc(S(=O)(=O)NC(=O)OCC(C)(C)O)c1-c1ccc(Cn2ccnc2C(F)(F)F)cc1")
2.63
>>> value_observed("Cc1c(CC(C)C)sc(S(=O)(=O)Nc2ncccn2)c1-c1ccc(Cn2ccnc2Cl)cc1")
5.22
>>> value_observed("CCCCOC(=O)NS(=O)(=O)c1sc(CC(C)C)cc1-c1ccc(Cn2ccnc2)cc1 [Control Compound I, reference compound]")
0.381
>>> value_observed("Cc1c(CC(C)C)sc(S(=O)(=O)NC(=O)OCCO)c1-c1ccc(Cn2ccnc2C(F)(F)F)cc1")
1.98
>>> value_observed("COC(=O)NS(=O)(=O)c1sc(CC(C)C)c(C)c1-c1ccc(Cn2ccnc2C(C)(C)O)cc1")
3.24

====

This listing pairs compounds with measured inhibition at 10 µM.
SYSTEM NAME: CYP2D6 (Homo sapiens, UniProt P10635)
Construct: Mixed human liver microsomes; from tissue; host or cells: mixed (pooled) human liver microsomes
Sequence (P10635 whole entry): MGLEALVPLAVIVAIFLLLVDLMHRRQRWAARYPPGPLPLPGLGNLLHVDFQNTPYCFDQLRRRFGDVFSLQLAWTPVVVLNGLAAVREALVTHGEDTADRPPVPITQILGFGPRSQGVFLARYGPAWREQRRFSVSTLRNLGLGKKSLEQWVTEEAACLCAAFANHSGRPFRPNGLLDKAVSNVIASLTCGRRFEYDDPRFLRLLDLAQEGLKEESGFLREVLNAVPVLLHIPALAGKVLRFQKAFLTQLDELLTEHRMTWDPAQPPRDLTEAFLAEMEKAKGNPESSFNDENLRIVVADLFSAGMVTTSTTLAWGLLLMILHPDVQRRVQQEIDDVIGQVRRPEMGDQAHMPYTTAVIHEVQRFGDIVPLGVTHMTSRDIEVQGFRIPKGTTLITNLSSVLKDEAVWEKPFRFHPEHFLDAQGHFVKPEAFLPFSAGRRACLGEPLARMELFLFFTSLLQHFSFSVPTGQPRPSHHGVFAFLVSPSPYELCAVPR
PROCEDURE SUMMARY: CYP inhibition assay in mixed human liver microsomes
Format: in vitro ADME
SETTINGS: read-out: Inhibition Rate % CYP2D6
Procedure: The inhibitory effects of the compounds on six enzymes, i.e., CYP1A2, CYP2C9, CYP2C19, CYP2D6, CYP3A4 (midazolam), and CYP2B6, were evaluated at a concentration of 10 µM. Mixed human liver microsomes, which were previously stored in a -80°C refrigerator before use, were taken out and thawed in a water bath at 37°C before use, and placed on ice for further operation. 100 µL of microsome working solution was taken, and added with 2 µL of compound or positive inhibitor working solution. […]
MEASURED PROPERTY: inhibition at 10 µM (%)

>>> value_observed("COC(=O)NS(=O)(=O)c1sc(CC(C)C)c(C)c1-c1ccc(Cn2ccnc2C(F)(F)F)cc1 [Compound I-9]")
0
>>> value_observed("Cc1c(CC(C)C)sc(S(=O)(=O)Nc2ncccn2)c1-c1ccc(Cn2ccnc2Cl)cc1 [Compound I-23]")
0
>>> value_observed("COC(=O)NS(=O)(=O)c1sc(CC(C)C)c(C)c1-c1ccc(Cn2ccnc2C(C)(C)O)cc1 [Compound I-19]")
0
>>> value_observed("CCCCOC(=O)NS(=O)(=O)c1sc(CC(C)C)cc1-c1ccc(Cn2ccnc2)cc1 [Control Compound I, reference compound]")
86.5
>>> value_observed("COC(=O)NS(=O)(=O)c1sc(CC(C)C)c(C)c1-c1ccc(Cn2ccnc2Cl)c(F)c1 [Compound I-14]")
2.1
>>> value_observed("Cc1c(CC(C)C)sc(S(=O)(=O)NC(=O)OCCO)c1-c1ccc(Cn2ccnc2C(F)(F)F)cc1 [Compound I-13]")
0
>>> value_observed("Cc1c(CC(C)C)sc(S(=O)(=O)NC(=O)OCC(C)(C)O)c1-c1ccc(Cn2ccnc2C(F)(F)F)cc1 [Compound I-10]")
0

====

Measured half-life at 1 µM by item
PROCEDURE SUMMARY: Liver microsomal stability assay
Format: in vitro ADME
SETTINGS: human liver microsomes, NADPH, 37°C; read-out: T1/2 (min) Human
MEASURED PROPERTY: half-life at 1 µM

>>> value_observed("Cc1c(CC(C)C)sc(S(=O)(=O)Nc2ncccn2)c1-c1ccc(Cn2ccnc2Cl)cc1 [Compound I-23]")
"39.3 min"
>>> value_observed("Cc1c(CC(C)C)sc(S(=O)(=O)NC(=O)OCC(C)(C)O)c1-c1ccc(Cn2ccnc2C(F)(F)F)cc1 [Compound I-10]")
"83.2 min"
>>> value_observed("Cc1c(CC(C)C)sc(S(=O)(=O)NC(=O)OCCO)c1-c1ccc(Cn2ccnc2C(F)(F)F)cc1 [Compound I-13]")
"46.4 min"
>>> value_observed("COC(=O)NS(=O)(=O)c1sc(CC(C)C)c(C)c1-c1ccc(Cn2ccnc2Cl)c(F)c1 [Compound I-14]")
"45 min"
>>> value_observed("CCCCOC(=O)NS(=O)(=O)c1sc(CC(C)C)cc1-c1ccc(Cn2ccnc2)cc1 [Control Compound I, reference compound]")
"9.13 min"
>>> value_observed("COC(=O)NS(=O)(=O)c1sc(CC(C)C)c(C)c1-c1ccc(Cn2ccnc2C(F)(F)F)cc1 [Compound I-9]")
"50.2 min"
>>> value_observed("COC(=O)NS(=O)(=O)c1sc(CC(C)C)c(C)c1-c1ccc(Cn2ccnc2C(C)(C)O)cc1 [Compound I-19]")
"71.2 min"
